# METHOD DESCRIPTION: Distribution coefficient, log D at pH 7.4
# Format: physicochemical
# CONDITION PARAMETERS: octanol/water
ENDPOINT LABEL: logD

1 = COCc1cn2c(C)c(C)nc2c2c1CCC(c1ccccc1)C2 (configuration not stated)
2 = Cc1nc2c3c(c(C(=O)N(C)C)cn2c1CO)CCC(c1ccccc1)C3 (configuration not stated)
Challenge: Which numeric logD is bigger, that of 1 or that of 2 ? Mark your answer with the label of the selected entry.
Response given: 1

----------
# METHOD DESCRIPTION: Inhibition of H+/K+ ATPase in hog gastric mucosa
# Format: tissue-based, Sus scrofa
ENDPOINT LABEL: Log IC50

{"COMPOUND": "CNC(=O)c1cn2c(C)c(C)nc2c2c1CCC(c1ccccc1)C2 (centres undefined)", "Log IC50": -6.2}
{"COMPOUND": "COCc1cn2c(C)c(C)nc2c2c1CCC(c1ccccc1)C2 (centres undefined)", "Log IC50": -6.3}
{"COMPOUND": "Cc1nc2c3c(c(C(N)=O)cn2c1C)CCC(c1ccccc1)C3 (centres undefined)", "Log IC50": -5.9}
{"COMPOUND": "Cc1nc2c3c(c(C(=O)N(C)C)cn2c1Br)CCC(c1ccccc1)C3 (centres undefined)", "Log IC50": -4.9}
{"COMPOUND": "Cc1nc2c3c(c(C(=O)N4CCOCC4)cn2c1C)CCC(c1ccccc1)C3 (centres undefined)", "Log IC50": -5}
{"COMPOUND": "Cc1nc2c3c(c(C(=O)N(C)C)cn2c1CO)CCC(c1ccccc1)C3 (centres undefined)", "Log IC50": -5.5}
{"COMPOUND": "Cc1nc2c3c(c(C(=O)N4CCCC4)cn2c1C)CCC(c1ccccc1)C3 (centres undefined)", "Log IC50": -5.9}
{"COMPOUND": "Cc1nc2c3c(ccn2c1CC#N)CCC(c1ccccc1)O3 (centres undefined)", "Log IC50": -7}
{"COMPOUND": "Cc1cn2ccc3c(c2n1)CC(c1ccccc1)CC3 (centres undefined)", "Log IC50": -5.1}
{"COMPOUND": "COCCNC(=O)c1cn2c(C)c(C)nc2c2c1CCC(c1ccccc1)C2 (centres undefined)", "Log IC50": -4.9}
{"COMPOUND": "Cc1cn2cc(C(=O)N(C)C)c3c(c2n1)CC(c1ccccc1)CC3 (centres undefined)", "Log IC50": -4.8}
{"COMPOUND": "Cc1nc2c3c(c(C(=O)N(C)C)cn2c1C)CCC(c1ccccc1)C3 (centres undefined)", "Log IC50": -6}
{"COMPOUND": "Cc1nc2c3c(ccn2c1C)CCC(c1ccccc1)C3 (centres undefined)", "Log IC50": -6.6}
{"COMPOUND": "Cc1nc2c3c(c(C(=O)NCCO)cn2c1C)CCC(c1ccccc1)C3 (centres undefined)", "Log IC50": -5.9}

----------
# METHOD DESCRIPTION: Dissociation constant, pKa of the compound
# Type: physicochemical
ENDPOINT LABEL: pKa

{"COMPOUND": "Cc1cn2ccc3c(c2n1)CC(c1ccccc1)CC3 (configuration not stated)", "pKa": 7.63}
{"COMPOUND": "Cc1nc2c3c(c(C(=O)NCCO)cn2c1C)CCC(c1ccccc1)C3 (configuration not stated)", "pKa": 7.22}
{"COMPOUND": "COCc1cn2c(C)c(C)nc2c2c1CCC(c1ccccc1)C2 (configuration not stated)", "pKa": 7.79}
{"COMPOUND": "Cc1nc2c3c(c(C(=O)N(C)C)cn2c1C)CCC(c1ccccc1)C3 (configuration not stated)", "pKa": 7.16}
{"COMPOUND": "Cc1cn2cc(C(=O)N(C)C)c3c(c2n1)CC(c1ccccc1)CC3 (configuration not stated)", "pKa": 6.67}
{"COMPOUND": "Cc1nc2c3c(ccn2c1C)CCC(c1ccccc1)C3 (configuration not stated)", "pKa": 8.05}
{"COMPOUND": "Cc1nc2c3c(c(C(=O)N(C)C)cn2c1Br)CCC(c1ccccc1)C3 (configuration not stated)", "pKa": 5.11}
{"COMPOUND": "COCCNC(=O)c1cn2c(C)c(C)nc2c2c1CCC(c1ccccc1)C2 (configuration not stated)", "pKa": 7.22}
{"COMPOUND": "Cc1nc2c3c(c(C(=O)N4CCOCC4)cn2c1C)CCC(c1ccccc1)C3 (configuration not stated)", "pKa": 7.05}
{"COMPOUND": "Cc1nc2c3c(c(C(=O)N4CCCC4)cn2c1C)CCC(c1ccccc1)C3 (configuration not stated)", "pKa": 7.2}
{"COMPOUND": "Cc1nc2c3c(c(C(N)=O)cn2c1C)CCC(c1ccccc1)C3 (configuration not stated)", "pKa": 7.26}
{"COMPOUND": "Cc1nc2c3c(c(C(=O)N(C)C)cn2c1CO)CCC(c1ccccc1)C3 (configuration not stated)", "pKa": 6.32}
